- methodSummary: In vitro cytotoxicity assay (MTT cell viability) in HepG2 cells
- Type: cell-based, human
- assaySetup: human
Measured CC50 at 7 days accompanies every entry in the list below.

Sample records with CC50 at 7 days:
Cc1c(C(=O)Nc2ccc(F)c(F)c2)c(C)n(C)c1C(=O)C(=O)Nc1ccc(F)c(F)c1 = 5 to 30 µM
Cc1cc(NC(=O)c2c(C)c(C(=O)C(=O)NC3CCN(c4cccnn4)CC3)n(C)c2C)ccc1F = > 30 µM
Cc1cc(NC(=O)c2c(C)c(C(=O)C(=O)NC3(c4noc(C5CC5)n4)CCCC3)n(C)c2C)ccc1F = > 30 µM
Cc1c(C(=O)Nc2ccc(F)cn2)c(C)n(C)c1C(=O)C(=O)NC12CC3CC(CC1C3)C2 = 5 to 30 µM
Cc1cc(NC(=O)c2c(C)c(C(=O)C(=O)N[C@@H](C(=O)O)C3CCCCC3)n(C)c2C)ccc1F = > 30 µM

Query molecule follows.
// lookup CC50 at 7 days for COc1c(C(=O)Nc2ccc(F)c(F)c2)c(C)n(C)c1C(=O)C(=O)NC(C)(C)C
> 30 µM
